The sequences listed here are annotated with their apparent KD of MS2 coat protein.
- Test system: MS2 coat protein
- method.notes: apparent KD of MS2 coat protein; higher = weaker reporter binding
- applied.conditions: Eterna round: R107; input ligand: theophylline 2 mM
observed.property: apparent KD of MS2 coat protein (nM)

sequence.data	observed.property	quantitative.result
GUCUGUGACUGAAGGAGCGACAUGAGGAUCACCCAUGUCUCCCGUUAUGGGAGUUCCUUAGGUCAGGUAGGUCGCAGUCACAGAC [#1 Exclusion - Arginine B Attempt #28 (Inspired by Omei)]	apparent KD of MS2 coat protein	152
UGUAUGUGAUCUGAUACCAGUCCAACUGGUAAAACUUGAGGAUCACCCAAGUAAAAUUGGGACCCUUGGCAGCAGAUCGCAUACU	apparent KD of MS2 coat protein	81.7
UGCCCUGCGAGCGCUCGCAGGGCAGCGGAUACCAGCGAGGUCCAUCGCCCUUGGCAGCCGAACAUGAGGAUCACCCAUGUCGGUG [Same State - Theophylline A Attempt #9 (HarryS)]	apparent KD of MS2 coat protein	144
UCACAUGAGGAUCACCCAUGUGUCAGAGAAGGAGCGGCCGCAAGGCCAGGUAGGUCGCUCGGGUAUGGUGAGGUUCACCCGUGUG [#1 Exclusion - Arginine A Attempt #13 (Inspired by cyborg)]	apparent KD of MS2 coat protein	57
AAAGAACAUGAGGAUCACCCAUGUACCGAAGGAGCGGCGAAGAAGCCAGGUAGGUCGCGGAACAUGAAGCGAUUAAGAAUUAAUU	apparent KD of MS2 coat protein	21

---

- System: MS2 coat protein
- method.notes: apparent KD of MS2 coat protein; designed switch direction (-1 OFF switch, 1 ON switch): 1; higher = weaker reporter binding
- applied.conditions: input ligand: microRNA oligo, concentration not stated
The sequences listed here are annotated with their apparent KD of MS2 coat protein.
observed.property: apparent KD of MS2 coat protein (nM)

sequence.data	quantitative.result
UGGUACAUGGGAGGAUAUCAUGUAGAAACAUGAGGAUCACCCAUGUAGAUGGCACGAUUCGUGAAUGAGAAGGCCCAUGUACCU [JL SSNG1 3.60] (Eterna round: R96, puzzle: Same State NG 2)	38.2
GAGUAGUUGAAAGGAUAUGCAUUGUUAUAGAAUGCAGAAGGUUCUAACAUGAGGAUCACCCAUGUAGGACUAUUCCUGUGUAUC [Parity 80 - Jieux - Same State NG 1] (Eterna round: R96, puzzle: Same State NG 1)	7.83
AUAAAUAACACAGGAUAUCCGCACGAGUAGUACGGAGAAGGGUGAACGUCGGCUCUCGCCAACAUGAGGAUCACCCAUGUAAAA [Usesesana] (Eterna round: R96, puzzle: Same State NG 1)	432
UUAAUUUGUUGAGGAUAUUAUGUCAAAAGAGAAGACAUGAGGAUCACCCAUGUGAGAAAAGGUUUUAAGAAGGCAACAUUCAUA [JR_SSNG2_Sub089] (Eterna round: R96, puzzle: Same State NG 2)	77.7
CGAGGCGUACAUGAGGAUCACCCAUGUACCUAACAACAAAGCAAGGAUAUCCUGGCUAUAAUACAGGAGAAGGUGUGGUCCUUA [Eternabot solution 15] (Eterna round: R96, puzzle: Same State NG 3)	107
GAGUAGUUGAAAGGAUAUUGAUUAUUGUAGGAUCAAGAAGGUUCUAACAUGAGGAUCACCCAUGUAGGACUAUUCCUGUGUAUC [Parity 89 - Jieux - Same State NG 1] (Eterna round: R96, puzzle: Same State NG 1)	8.63
UGUUGUAUUACAGGAUAUCUAUUAGUUGUAUUUAGAGAAGGGUAUUCACAUGAGGAUCACCCAUGUAUAUACGAGGAAGUUGUG [JMF's solution 92] (Eterna round: R96, puzzle: Same State NG 1)	44.1
GUGGUCUGACAUGAGGAUCACCCAUGUGGAAUAAAUACGGGUCAGGAUAUCUUGAGGAUCACCCAAGAGAAGGGACGGAUUGUU (Eterna round: R96, puzzle: Same State NG 3)	23.5
AGUAGUGUAACAUGAGGAUCACCCAUGUAAGAAUAUGUAACCUAGGAUAUGGAGGUUAUGUUUGACCAGAAGGAGGAUUGUUUA [JR_SSNG3_Sub041] (Eterna round: R96, puzzle: Same State NG 3)	20.3
